System: KM12 colon
measurementProtocol: NCI tumour cell line growth inhibition, 48 h
Each entry below carries its reported GI50.

Some compounds with recorded GI50:
compound	GI50
O=C(N/N=C/c1cc(Cl)cc(Cl)c1[O-])c1ccccc1.O=C(N/N=C/c1cc(Cl)cc(Cl)c1[O-])c1ccccc1.[Co+2]	27.3 µM
COc1ccc(C(CC(=O)c2ccccc2)C(C(=O)c2ccccc2)C(c2ccc(OC)cc2)C2C(=O)NC(=S)NC2=O)cc1 (centres undefined)	8.12 µM

stdin: Consider the compound O=C(C[P+](c1ccccc1)(c1ccccc1)c1ccccc1)C[P+](c1ccccc1)(c1ccccc1)c1ccccc1 and give its measured GI50.
stdout: 1.13 µM

stdin: Then Cc1ccc(-c2nc(-c3cn(C)c4ncccc34)cs2)cc1 ?
stdout: 1.2 µM

stdin: Then CCS(=O)(=O)c1ccc(OC)c(Nc2ncc(-c3ccccc3Cl)o2)c1 ?
stdout: 7.59 µM

stdin: Then Nc1nc(=O)n([C@@H]2CS[C@H](CO)O2)cc1F ?
stdout: > 100 µM

stdin: Then Cc1cc(Nc2cc(N3CCN(C)CC3)nc(Sc3ccc(NC(=O)C4CC4)cc3)n2)n[nH]1 ?
stdout: 0.0461 µM

stdin: Then COc1cc(NCCN=C(N)NC(N)=NC(C)C)c2ncccc2c1 ?
stdout: 3.53 µM

stdin: Then CCOC(=O)c1ccc2c(c1)[n+](=O)c(C(C)=O)c(C(F)(F)F)n2[O-] ?
stdout: 1.47 µM
